Can you tell me inhibition of growth at 0.05 µg/mL for the items I'm about to list?
system: Leptosphaeria nodorum (LEPTNO); test: In vitro fungitoxicity of hydrazones with and without copper towards Leptosphaeria nodorum (Example 26); format: cell-based; settings: Parastagonospora nodorum, 72 h, compound 0.05 μg/mL, copper-minus medium, 72 h at 25° C.; read-out: LEPTNO % Inhn. Minus Copper Observed

Input "COc1cc(Br)cc(/C=N/NC(=O)c2cccc(Cl)c2)c1O" . Output inhibition of growth at 0.05 µg/mL: 6.9%

For this molecule ( "O=C(N/N=C/c1cc(Br)ccc1O)c1ccc(Cl)cc1" ), measured inhibition of growth at 0.05 µg/mL is 4%

So for "O=C(N/N=C/c1cc(Br)cc(Br)c1O)c1cc(Cl)cc(Cl)c1" , the logged inhibition of growth at 0.05 µg/mL turned out to be 28.8%

Recorded inhibition of growth at 0.05 µg/mL (molecule "O=C(Cc1ccccc1)N/N=C/c1cc(Cl)cc(Br)c1O" ): 1.9%

// "O=C(N/N=C/c1ccccc1O)c1ccc(Cl)cc1" : inhibition of growth at 0.05 µg/mL value = 0%

The molecule "O=C(N/N=C/c1ccccc1O)c1cc(Cl)ccc1Br" showed inhibition of growth at 0.05 µg/mL equal to 0%

inhibition of growth at 0.05 µg/mL reading for "COc1ccc(Br)c(/C=N/NC(=O)c2ccccc2)c1O" : 5.3%

Sure, the documented inhibition of growth at 0.05 µg/mL for "O=C(Cc1ccccc1)N/N=C/c1cc(Cl)cc(Cl)c1O" is 2.4%

###

test system: Leptosphaeria nodorum (LEPTNO); assay: In vitro fungitoxicity of hydrazones with and without copper towards Leptosphaeria nodorum (Example 26); format: cell-based; details: Parastagonospora nodorum, 72 h, copper-minus medium; test compound Concn. 0.05 μg/mL; 72 h at 25° C.; read-out: LEPTNO % Inhn. Minus Copper Observed
Mark Yes for reported inhibition of growth at 0.05 µg/mL of 8% or greater; mark No for anything smaller.

Say whether "Cc1ccc(C(=O)N/N=C/c2c(O)cccc2Cl)c(O)c1" shows inhibition of growth at 0.05 µg/mL of 8% or more.
Yes

// inclusive: inhibition of growth at 0.05 µg/mL at least 8%? input: "O=C(N/N=C/c1cc(Cl)ccc1O)c1ccccc1C(F)(F)F"
No

Decide: is the reported value of inhibition of growth at 0.05 µg/mL for "O=C(N/N=C/c1cccc(C(F)(F)F)c1O)c1ccccc1O" equal to or greater than 8%?
No

Evaluate "O=C(N/N=C/c1cc(Cl)cc(C(F)(F)F)c1O)c1ccc(F)cc1" : inhibition of growth at 0.05 µg/mL at minimum 8%?
Yes

Check the entry "Cc1ccc(C(=O)N/N=C/c2c(O)cccc2Cl)cc1" : does inhibition of growth at 0.05 µg/mL equal or exceed 8%?
No

Kindly determine if inhibition of growth at 0.05 µg/mL recorded for "O=C(N/N=C/c1cc(C(F)(F)F)cc(C(F)(F)F)c1O)c1cccc([N+](=O)[O-])c1" is above or exactly 8%.
Yes

Determine whether this compound has inhibition of growth at 0.05 µg/mL no lower than 8%: "C/C(=N\NC(=O)c1cccc(Cl)c1)c1cc(C(F)(F)F)ccc1O"
No

###

tested on: Leptosphaeria nodorum (LEPTNO); assay: In vitro fungitoxicity of hydrazones with and without copper towards Leptosphaeria nodorum (Example 26); assay type: cell-based; settings: Parastagonospora nodorum, 72 h, compound 0.05 μg/mL, copper-minus medium, 72 h at 25° C.; read-out: LEPTNO % Inhn. Minus Copper Observed
Decision: inhibition of growth at 0.05 µg/mL >= 6% yields YES, all other cases yield NO.

# bool: inhibition of growth at 0.05 µg/mL of Cc1ccc([N+](=O)[O-])c(C(=O)N/N=C/c2cc(Cl)cc(Cl)c2O)c1 [Example 9] >= 6%
NO

Check if inhibition of growth at 0.05 µg/mL >= 6% (inclusive). Item: O=C(N/N=C/c1cc(Br)ccc1O)c1ccccc1Cl [Example 170]
NO

Determine whether this compound has inhibition of growth at 0.05 µg/mL no lower than 6%: C/C(=N\NC(=O)c1ccccc1C)c1cccc([N+](=O)[O-])c1O [Example 269]
NO

Does inhibition of growth at 0.05 µg/mL meet or surpass 6% for COc1ccc(O)c(/C(C)=N/NC(=O)c2ccccc2Cl)c1 [Example 265] ?
NO

Assess whether reported inhibition of growth at 0.05 µg/mL for O=C(N/N=C/c1ccccc1O)c1cccc(C(F)(F)F)c1 [Example 61] sits at 6% or higher.
NO

Hello, I need to know if COc1ccc(C(=O)N/N=C(\C)c2ccccc2O)cc1 [Example 214] has measured inhibition of growth at 0.05 µg/mL not below 6%. Thanks!
YES

Item O=C(N/N=C/c1c(O)cc(Cl)cc1Cl)c1ccccc1 [Example 242] with inhibition of growth at 0.05 µg/mL of 6% or above?
YES

Is inhibition of growth at 0.05 µg/mL for C/C(=N\NC(=O)c1ccccc1C(F)(F)F)c1ccccc1O [Example 58] at or above 6%?
NO

For this compound, is measured inhibition of growth at 0.05 µg/mL 6% or higher? O=C(N/N=C/c1cc(Cl)ccc1O)c1cccc(Cl)c1 [Example 178]
YES

Could you verify whether the entry Cc1ccc(O)c(/C=N/NC(=O)c2ccccc2)c1 [Example 235] shows inhibition of growth at 0.05 µg/mL of no less than 6%?
NO

Answer whether inhibition of growth at 0.05 µg/mL of Cc1cc(C)cc(C(=O)N/N=C/c2cc(Br)cc(Br)c2O)c1 [Example 110] is greater than or equal to 6%.
YES

Check the entry C/C(=N\NC(=O)c1ccc(Cl)cc1Cl)c1ccccc1O [Example 216] : does inhibition of growth at 0.05 µg/mL equal or exceed 6%?
YES

###

system: Leptosphaeria nodorum (LEPTNO); test: In vitro fungitoxicity of hydrazones with and without copper towards Leptosphaeria nodorum (Example 26); type: cell-based; settings: copper-plus medium (CuCl2 10 μM); test compound Concn. 0.05 μg/mL; 72 h at 25° C.
measure: LEPTNO % Inhn. Plus Copper Observed

LEPTNO % Inhn. Plus Copper Observed in this record for O=C(N/N=C/c1ccc(Cl)c(Cl)c1O)c1ccccc1C(F)(F)F [Example 363] : 94.7%

Entry under test: O=C(N/N=C/c1c(O)cccc1Cl)c1ccccc1C(F)(F)F [Example 407] . Its LEPTNO % Inhn. Plus Copper Observed was 92.0%

Form: molecule = COc1ccc(/C(C)=N/NC(=O)c2ccccc2O)c(O)c1OC [Example 562] ; LEPTNO % Inhn. Plus Copper Observed = 97.3%

Just so you know, measured LEPTNO % Inhn. Plus Copper Observed for C/C(=N\NC(=O)c1ccc(C(F)(F)F)cc1)c1cc(C(F)(F)F)ccc1O [Example 536] came out at 93.4%

// recorded LEPTNO % Inhn. Plus Copper Observed for C/C(=N\NC(=O)c1ccc(C)cc1O)c1cc(Cl)cc(Cl)c1O [Example 491] : 97.5%

Entry COc1ccc(C(=O)N/N=C(\C)c2cc(F)cc(F)c2O)cc1 [Example 579] , LEPTNO % Inhn. Plus Copper Observed reported as 97.6%

Lookup result for O=C(N/N=C/c1cc(Cl)cc(Br)c1O)c1cccc([N+](=O)[O-])c1 [Example 416] ; measured LEPTNO % Inhn. Plus Copper Observed: 97.5%

Record summary for C/C(=N\NC(=O)c1ccc(Cl)cc1)c1cccc(Cl)c1O [Example 498] : reported LEPTNO % Inhn. Plus Copper Observed = 97.5%

Value of measured LEPTNO % Inhn. Plus Copper Observed for the entry C/C(=N\NC(=O)c1cccc(C)c1)c1cc(Cl)ccc1O [Example 506] : 97.5%

In plain terms, COc1ccc(/C(C)=N/NC(=O)c2ccc(Br)cc2)c(O)c1 [Example 483] has a documented LEPTNO % Inhn. Plus Copper Observed of 97.9%

// LEPTNO % Inhn. Plus Copper Observed lookup, molecule = C/C(=N\NC(=O)c1ccccc1Cl)c1cc(F)cc(F)c1O [Example 576] , result: 97.9%

O=C(N/N=C/c1cc(C(F)(F)F)ccc1O)c1ccc([N+](=O)[O-])cc1 [Example 442] yielded LEPTNO % Inhn. Plus Copper Observed of 100.0%

For C/C(=N\NC(=O)c1ccc(C(F)(F)F)cc1)c1cc(Cl)cc(Cl)c1O [Example 470] the molecule record lists LEPTNO % Inhn. Plus Copper Observed as 98.0%

Note to self: LEPTNO % Inhn. Plus Copper Observed recorded for COc1ccc(/C(C)=N/NC(=O)c2ccc(C(F)(F)F)cc2)c(O)c1OC [Example 560] was 90.7%

Entry under test: O=C(N/N=C/c1ccc(Cl)c(Cl)c1O)c1cccc(F)c1 [Example 356] . Its LEPTNO % Inhn. Plus Copper Observed was 98.0%

Data point: C/C(=N\NC(=O)c1cccc(C)c1)c1cc(Br)cc(Br)c1O [Example 541] ; LEPTNO % Inhn. Plus Copper Observed = 97.5%

Per the records, this molecule ( C/C(=N\NC(=O)c1ccc(C(F)(F)F)cc1)c1cc(Br)cc(Br)c1O [Example 548] ) has LEPTNO % Inhn. Plus Copper Observed equal to 97.5%

Sure, the documented LEPTNO % Inhn. Plus Copper Observed for O=C(N/N=C/c1ccc(Cl)c(Cl)c1O)c1ccc(Cl)cc1 [Example 359] is 97.3%

// field: LEPTNO % Inhn. Plus Copper Observed; key: O=C(N/N=C/c1cc(Cl)ccc1O)c1cccc(F)c1 [Example 420] ; value = 97.5%

Short answer for C/C(=N\NC(=O)c1ccccc1Br)c1cc(C(F)(F)F)ccc1O [Example 537] : LEPTNO % Inhn. Plus Copper Observed was 96.2%

Entry COc1ccc(C(=O)N/N=C(\C)c2cccc(Cl)c2O)cc1 [Example 499] — recorded LEPTNO % Inhn. Plus Copper Observed = 97.4%

LEPTNO % Inhn. Plus Copper Observed reading for O=C(N/N=C/c1cccc(C(F)(F)F)c1O)c1cccc(F)c1 [Example 345] : 97.9%

Entry COc1cc(O)c(/C(C)=N/NC(=O)c2ccccc2O)c(OC)c1 [Example 586] ; LEPTNO % Inhn. Plus Copper Observed = 87.3%

Value of measured LEPTNO % Inhn. Plus Copper Observed for the entry Cc1ccc(C(=O)N/N=C/c2cc(Br)cc(F)c2O)cc1 [Example 411] : 97.9%

response.value for COc1cccc(/C(C)=N/NC(=O)c2ccc(Cl)cc2)c1O [Example 305] (field: LEPTNO % Inhn. Plus Copper Observed) = 98.3%

Lookup result for O=C(N/N=C/c1cc(Cl)cc(Cl)c1O)c1ccc2ccccc2c1O [Example 488] ; measured LEPTNO % Inhn. Plus Copper Observed: 92.6%

Note to self: LEPTNO % Inhn. Plus Copper Observed recorded for O=C(N/N=C/c1cccc(Cl)c1O)c1ccccc1O [Example 431] was 95.1%

LEPTNO % Inhn. Plus Copper Observed for COc1ccc(C(=O)N/N=C(\C)c2ccc(OC)cc2O)cc1 [Example 482] is 96.4%

Documented LEPTNO % Inhn. Plus Copper Observed of C/C(=N\NC(=O)c1cccc(Cl)c1O)c1cc(Cl)cc(Cl)c1O [Example 481] : 97.8%

Per the record, C/C(=N\NC(=O)c1ccccc1O)c1cccc([N+](=O)[O-])c1O [Example 525] has LEPTNO % Inhn. Plus Copper Observed of 97.4%

// field: LEPTNO % Inhn. Plus Copper Observed; key: O=C(N/N=C/c1cc(Cl)ccc1O)c1ccccc1C(F)(F)F [Example 422] ; value = 95.5%
